Target: mineralocorticoid receptor (Rattus norvegicus, UniProt P22199)
Construct: mineralocorticoid receptor from rat kidney homogenate; from tissue; host or cells: rat kidney homogenate
Sequence (P22199 whole entry): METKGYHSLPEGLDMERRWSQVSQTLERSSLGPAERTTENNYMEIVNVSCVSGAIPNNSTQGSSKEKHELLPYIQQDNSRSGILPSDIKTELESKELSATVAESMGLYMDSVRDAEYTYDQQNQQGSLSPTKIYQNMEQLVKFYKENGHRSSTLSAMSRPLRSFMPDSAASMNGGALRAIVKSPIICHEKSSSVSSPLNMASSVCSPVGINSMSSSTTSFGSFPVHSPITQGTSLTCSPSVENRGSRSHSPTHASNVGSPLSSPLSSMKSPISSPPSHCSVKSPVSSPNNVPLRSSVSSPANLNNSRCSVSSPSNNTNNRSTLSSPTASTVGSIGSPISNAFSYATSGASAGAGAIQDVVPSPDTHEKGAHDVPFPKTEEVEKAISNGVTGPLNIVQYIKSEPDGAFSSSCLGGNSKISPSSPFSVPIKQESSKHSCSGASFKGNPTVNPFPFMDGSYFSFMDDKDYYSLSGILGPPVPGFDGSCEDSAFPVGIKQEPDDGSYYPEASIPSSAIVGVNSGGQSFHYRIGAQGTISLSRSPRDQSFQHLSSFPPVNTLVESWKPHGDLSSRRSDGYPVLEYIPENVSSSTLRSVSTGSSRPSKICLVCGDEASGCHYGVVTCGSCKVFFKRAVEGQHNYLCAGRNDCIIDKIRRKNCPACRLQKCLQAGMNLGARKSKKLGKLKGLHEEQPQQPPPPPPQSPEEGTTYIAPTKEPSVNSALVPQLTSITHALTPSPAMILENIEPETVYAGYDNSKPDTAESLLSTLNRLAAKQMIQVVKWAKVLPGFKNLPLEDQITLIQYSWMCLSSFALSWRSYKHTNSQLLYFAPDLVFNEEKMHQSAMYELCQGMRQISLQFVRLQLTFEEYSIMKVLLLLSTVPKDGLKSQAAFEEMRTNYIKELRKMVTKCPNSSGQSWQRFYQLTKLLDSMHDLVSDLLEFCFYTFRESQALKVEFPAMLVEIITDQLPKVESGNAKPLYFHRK
Assay: mineralocorticoid receptor binding, rat kidney homogenate
Conditions: 3H-aldosterone = 100
Recorded endpoint: MR [RBA]
Answer using only a numeral; do not append any unit.

| Molecule | Measurement |
| --- | --- |
| CC[C@]12CC[C@H]3[C@H]([C@@H]1[C@@H]1C[C@@H]1[C@@]21CCCO1)[C@H](C1CC1)CC1=CC(=O)CC[C@@H]13 [Example 12] | 143 |
| CC[C@]12CC[C@H]3[C@H]([C@@H]1[C@@H]1C[C@@H]1[C@@]21CCCO1)[C@H](C)CC1=CC(=O)CC[C@@H]13 [Example 6] | 167 |

query: Field request: MR [RBA] | item: CCC1CC2=CC(=O)CCC2C2CCC3(CC)C(C4CC4C34CCCO4)C12 (stereo not drawn) [Example 9]
result: 2

query: Also CCC12CCC3C4CCC(=O)C(C)=C4C4CC4C3C1C1CC1C21CCCO1 (stereo not drawn) [Example 17] ?
result: 13

query: Also CC[C@]12CC[C@H]3[C@@H]([C@H]4C[C@H]4C4=C(Cl)C(=O)CC[C@@H]43)[C@@H]1[C@@H]1C[C@@H]1[C@@]21CCCO1 [Example 18] ?
result: 1

Source of measurements: patent US7846917B2
